# Test system: NCI-H23 lung
# Experiment Notes: NCI-60 one-dose screen, 48 h (100 = growth as untreated, 0 = no growth, -100 = all killed)
# Run Conditions: 10 µM unless noted
About 83,000 compounds went through this panel and 20% of them were active in at least one assay; those are over-represented in the sample as a whole.
Quantity: growth (%)
Give the quantity in %, number only.

// CCCCCCCCCCCCCCCCCCOc1ccccc1N : growth value = 87.8

// COc1cc(NCC(O)CN(CC(C)C)CC(C)C)c2nc(C)ccc2c1 (configuration not stated) : growth value = 85.6

// O=c1nc2n(nc1/C=C/c1ccco1)CC(c1ccc(Cl)cc1)=NN2 : growth value = 93

// COc1ccc2c(Nc3ccc(NS(C)(=O)=O)cc3)c3ccccc3nc2c1 : growth value = -18.6

// O=C1Nc2ccccc2/C1=N/c1nc(-c2ccc(Cl)cc2)cs1 : growth value = 75

// COc1ccc(Cc2nc3cc(OC)c(OC)cc3c(=O)[nH]2)cc1 : growth value = 59.6

// N/C(=N\N=C\c1cc2ccccc2[nH]1)N/N=C/c1cc2ccccc2[nH]1 : growth value = 96.3

// Cc1cc(Nc2cccc(C(F)(F)F)c2)n2c(nc3ccccc32)c1C#N : growth value = 25.1

// O=C1CCC(NC(=S)Nc2ccccc2)N1 (configuration not stated) : growth value = 91.2

// NC(=O)C1(N2CCCCC2)CCN(CCCC(=O)c2ccc(F)cc2)CC1 : growth value = 31.6

// COc1ccc(/C=C/C(=O)c2ccc(OC)c(OC)c2)cc1O : growth value = 73.1

// COc1ccccc1N1CCN(C(=O)c2ccc3nc(NC(=O)c4ccc(NCCc5ccccc5)c([N+](=O)[O-])c4)sc3c2)CC1 : growth value = 81.9

// COc1cc(Nc2cc(O)c3c(=O)cc(-c4ccccc4)oc3c2)cc(OC)c1 : growth value = 35.9

// COc1ccc(-c2c(-c3ccccc3)noc2N)cc1OC : growth value = 105

// N#C/C(=C\c1ccc(Br)cc1)n1nnc2cccc(F)c21 : growth value = 23.8

// COc1ccc(C(O)c2cc3c(N)c(C(=O)Nc4ccc(Cl)cc4)sc3nc2C)cc1 (configuration not stated) : growth value = 32.7

// O=C(/C=C\c1ccc(OCCCCCC[P+](c2ccccc2)(c2ccccc2)c2ccccc2)cc1)c1ccc2c(c1)OCCO2 : growth value = 3.95

// CC(C)Cc1ccc(C(C)C(=O)NCc2ccc(Cn3c(=O)sn(-c4ccc(Cl)cc4)c3=O)cc2)cc1 (configuration not stated) : growth value = 85.6

// NC(=O)c1cccc(-n2ccc3cc(NC(=O)Nc4cc(C(F)(F)F)cc(C(F)(F)F)c4)ccc32)n1 : growth value = 44.5

// C#CCn1cc(C=C2C(=O)NC(=S)NC2=O)c2cc(Cl)ccc21 : growth value = -4.83

// COc1cc(NCCCN(CC(C)C)CC(C)C)c2ncccc2c1 : growth value = 72.9

// Cc1ccc2[nH]c(=S)n(-c3ccc(S(=O)(=O)Nc4ccc(Cl)nn4)cc3)c(=O)c2c1 : growth value = 101

// COc1ccc(C2=NN(C(C)=O)C(c3cn(Cc4ccc(Cl)cc4)c4ccccc34)C2)cc1 (configuration not stated) : growth value = 73.3

// CC(=O)N1N=C(c2cccc(Nc3ccncc3)c2)CC1c1ccc2c(c1)OCO2 (configuration not stated) : growth value = 87.4

// O=C(/C=C/c1ccc[nH]1)c1ccc(-n2ccc(C(F)(F)F)n2)cc1 : growth value = 90.1

// N#Cc1c(Nc2ccccc2)nn2cc(-c3nc4ccccc4s3)c(N)nc12 : growth value = 60.3

// CC(=O)c1c(-c2ccc(OC(F)(F)F)cc2)nc2ccccn12 : growth value = 95.4

// Cc1cn(-c2cc(C(=O)Nc3cccc(C#Cc4cccc5[nH]nc(N)c45)c3)cc(C(F)(F)F)c2)cn1 : growth value = 44.1

// O=C(O)C(/C=C/c1ccco1)=N\Nc1nc(-c2ccc(Cl)cc2)cs1 : growth value = 57.7

// Clc1cc(Cl)cc(N2N=C(c3cccc(Nc4ccncc4)c3)CC2c2ccccc2)c1 (configuration not stated) : growth value = 82.8

// COc1cc(C(=O)/C=C/c2c(C)n([O-])c3ccc(Cl)cc3[n+]2=O)cc(OC)c1OC : growth value = 72

// CCc1nc(C)cn1C(=O)OCc1nc2nc(Cl)nc(N3CCOCC3)c2[nH]1 : growth value = 28.9

// [O-][n+]1ccccc1CCN(O)CCc1cccc[n+]1[O-] : growth value = 97.1

// COc1ccc(-c2nn(Cc3ccccc3)c3c2-c2oncc2CC3)cc1OC : growth value = 105

// CCn1cc(C2NC(=O)c3ccccc3N2)c2cccc(C)c21 (configuration not stated) : growth value = 30.1

// COc1cc2nc(-c3ccc(C(F)(F)F)cc3)cc(OCCCN3CCC(O)CC3)c2cc1OC : growth value = 57.9

// O=S(=O)(NCCCNc1nccc(-c2c(-c3cccc(O)c3)nc3occn23)n1)c1ccc(F)cc1 : growth value = 88.6

// O=S(=O)(NCCCNc1nccc(-c2c(-c3ccccc3)nc3occn23)n1)c1ccc(Cl)cc1 : growth value = 94.2

// Fc1ccc2nc3c(cc2c1)CSc1nnc(-c2ccc[nH]c2=S)n1N3 : growth value = 92.7

// COc1cc2nc(-c3ccc(-c4nn[nH]n4)cc3)[nH]c(=O)c2cc1OC : growth value = 93.7

// NC(=S)N/N=C(\c1ccc(Cl)cc1)C1CC1 : growth value = 89.7

// CC(C)(C#N)N1CCN(c2ccccc2Cl)CC1 : growth value = 98.8
